5-hydroxytryptamine receptor 1A (Homo sapiens, UniProt P08908) pKi, compiled from various sources.
Sequence (P08908 whole entry): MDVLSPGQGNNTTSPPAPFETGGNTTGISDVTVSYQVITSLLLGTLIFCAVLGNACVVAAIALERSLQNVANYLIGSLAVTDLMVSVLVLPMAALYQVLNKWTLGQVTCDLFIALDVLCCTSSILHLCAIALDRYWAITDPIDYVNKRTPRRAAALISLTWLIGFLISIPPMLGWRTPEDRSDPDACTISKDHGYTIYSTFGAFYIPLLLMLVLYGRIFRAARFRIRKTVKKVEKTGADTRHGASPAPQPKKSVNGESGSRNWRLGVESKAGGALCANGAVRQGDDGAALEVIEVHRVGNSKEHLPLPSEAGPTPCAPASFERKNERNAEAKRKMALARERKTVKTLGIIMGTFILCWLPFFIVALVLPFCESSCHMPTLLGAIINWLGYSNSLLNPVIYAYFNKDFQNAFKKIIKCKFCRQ
Here pKi is given on a logarithmic scale as minus log10 of the concentration in mol/L.

The cases that follow already have their pKi on record.
Cn1c(=O)cnn(CCCCN2CCN(c3ccccc3F)CC2)c1=O
8.72
CC(C)CS(=O)(=O)NC1CCN(CCOc2ccccc2-c2ccccc2)CC1
7.13
COc1ccccc1N1CCN(CCCCNc2ccc3ccccc3n2)CC1
8.01
COc1ccc(Br)c(CC2CCN(CCc3cc(OC)c(OC)cc3Cl)CC2)c1
8.71
Fc1ccc(N2CCN(CCCc3c[nH]c4ccc(F)cc34)CC2)c(-c2ccsc2)c1
8.08
CCC(Oc1cc(Cl)cc(Cl)c1)c1nc(Nc2ccccc2)nc(N2CCN(C)CC2)n1 (stereo not given)
4.72
O=S(=O)(NC1CCN(CCOc2ccccc2-c2ccccc2)CC1)c1cncc2ccccc12
7.13
O=S(=O)(c1ccccc1)C1(CCCN2CCc3ccccc3C2)CCC1
7.46

Form field, pKi with 5-hydroxytryptamine receptor 1A (Homo sapiens, UniProt P08908), item Oc1nc2cccc(N3CCN(Cc4cc(-c5ccc(F)cc5)ccn4)CC3)c2o1 : 7.80

5-hydroxytryptamine receptor 1A (Homo sapiens, UniProt P08908) pKi of c1ccc(-c2cccc(CN3CCN(c4cccc5c4OCCO5)CC3)c2)cc1 is 9.04
